Cited source for all entries: patent US9428519B2

- Test system: Huh7 (human liver cancer cell)
- MEASUREMENT NOTES: MTT growth inhibition of human solid tumor cells, 72 h
- Format: cell-based
- TEST SETTINGS: Homo sapiens, Huh-7
- Method: […] Obtaining 4000 well-growing human solid tumor cells and inoculating them into wells of a 96-well cell culture plate. […] Then the viable cell concentration is determined by the MTT method and the cell viability (%) after drug treatment is calculated. […]
// NB: equality with 10 ng/mL counts as label 0; only IC50 strictly below is label 1

# example entries with known answers
> print(dat)
                            molecule.smiles  discrete.label
1  COC(=O)C[C@@](CCCC(C)(C)OC(=O)c1cccs1)(OC(=O)c1cccs1)C(=O)O[C@@H]1C(OC)=C[C@]23CCCN2CCc2cc4c(cc2[C@H]13)OCO4         label 0
2  COC(=O)C[C@](O)(CCCC(C)(C)OC(=O)c1cccnc1Cl)C(=O)O[C@@H]1C(OC)=C[C@]23CCCN2CCc2cc4c(cc2[C@H]13)OCO4         label 1
3  COC(=O)C[C@](O)(CCCC(C)(C)OC(C)=O)C(=O)O[C@@H]1C(OC)=C[C@]23CCCN2CCc2cc4c(cc2[C@H]13)OCO4         label 1
4  COC(=O)C[C@@](CCCC(C)(C)OC(C)=O)(OC(C)=O)C(=O)O[C@@H]1C(OC)=C[C@]23CCCN2CCc2cc4c(cc2[C@H]13)OCO4         label 0
5  COC(=O)C[C@](O)(CCCC(C)(C)OC(=O)c1ccco1)C(=O)O[C@@H]1C(OC)=C[C@]23CCCN2CCc2cc4c(cc2[C@H]13)OCO4         label 0

Req: Please determine if COC(=O)C[C@](O)(CCCC(C)(C)OC(=O)C1CC1)C(=O)O[C@@H]1C(OC)=C[C@]23CCCN2CCc2cc4c(cc2[C@H]13)OCO4 is below 10 ng/mL in terms of IC50.
Resp: label 1

Req: Next entry: COC(=O)C[C@](O)(CCCC(C)(C)OC(=O)c1scnc1C)C(=O)O[C@@H]1C(OC)=C[C@]23CCCN2CCc2cc4c(cc2[C@H]13)OCO4
Resp: label 1
